# target-of-assay: T1, human MAdCAM expressed on cells (human, UniProt Q13477 19-382)
# T1 construct: whole, on cells; also called MADCAM1
# T1 sequence (looked up): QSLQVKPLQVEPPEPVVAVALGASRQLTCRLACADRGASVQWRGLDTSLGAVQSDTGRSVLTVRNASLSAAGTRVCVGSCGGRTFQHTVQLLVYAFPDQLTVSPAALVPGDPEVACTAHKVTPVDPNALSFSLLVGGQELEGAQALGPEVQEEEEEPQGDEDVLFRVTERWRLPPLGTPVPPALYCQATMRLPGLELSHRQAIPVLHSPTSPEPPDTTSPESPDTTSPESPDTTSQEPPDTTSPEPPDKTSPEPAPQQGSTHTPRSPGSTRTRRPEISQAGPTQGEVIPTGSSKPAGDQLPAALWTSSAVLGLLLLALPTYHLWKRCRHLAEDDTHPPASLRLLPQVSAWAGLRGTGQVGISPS
# experiment: cell binding

| binder | binding result |
| --- | --- |
| MAdCAM Antibody Table 2 Clone 67 (antibody, human IgG1, V domains shown) VH: QVQLVQSGAEVKKPGASVKVSCKASGYTFTGYYMHWVRQAPGQGLEWMGMIYPRDGSTSYAQKFQGRVTMTRDTSTSTVYMELSSLRSEDTAVYYCAMTGWGYGMDVWGKGTTVTVSS VL: DIQMTQSPSSLSASVGDRVTITCRASQGINNYLAWYQQKPGKAPKLLIYDASTLQSGVPSRFSGSGSGTDFTLTISSLQPEDFATYYCQQSYSAPPTFGQGTKLEIK | binds |
| MAdCAM Antibody Table 2 Clone 6 (antibody, human IgG1, V domains shown) VH: EVQLLESGGGLVQPGGSLRLSCAASGFTFNNYAFHWVRQAPGKGLEWVSRINSYGTSTTYADSVKGRFTISRDNSKNTLYLQMNSLRAEDTAVYYCAREGPVAGYWYFDLWGQGTLVTVSS VL: DIQMTQSPSSLSASVGDRVTITCRASQIIGTNLAWYQQKPGKAPKLLIYGASSLQSGVPSRFSGSGSGTDFTLTISSLQPEDFATYYCQQSYRLPFTFGQGTKVEIK | binds |
